Entries and their Emax values follow.
biological target: CFTR (F508del/MF-HBE cells) (Homo sapiens, UniProt P13569, DEL508-508); construct: human bronchial epithelial (HBE) cells derived from CF subjects heterozygous for F508del and a minimal function CFTR mutation (F508del/MF-HBE); endogenous in cells; host or cells: Primary human bronchial epithelial cells from CF subjects (F508del/MF genotype), differentiated at an air-liquid interface; test: Ussing chamber assay of CFTR-mediated short-circuit currents, Assay A (0.1 μM to 25 μM, 6 concentrations); assay type: cell-based; conditions: with 33 nM potentiator and 18 μM Tezacaftor, 18-24 hours, 20% human serum, read-out: A Max activity (%)
Sequence (P13569 with tags, fused parts or gaps DEL508-508): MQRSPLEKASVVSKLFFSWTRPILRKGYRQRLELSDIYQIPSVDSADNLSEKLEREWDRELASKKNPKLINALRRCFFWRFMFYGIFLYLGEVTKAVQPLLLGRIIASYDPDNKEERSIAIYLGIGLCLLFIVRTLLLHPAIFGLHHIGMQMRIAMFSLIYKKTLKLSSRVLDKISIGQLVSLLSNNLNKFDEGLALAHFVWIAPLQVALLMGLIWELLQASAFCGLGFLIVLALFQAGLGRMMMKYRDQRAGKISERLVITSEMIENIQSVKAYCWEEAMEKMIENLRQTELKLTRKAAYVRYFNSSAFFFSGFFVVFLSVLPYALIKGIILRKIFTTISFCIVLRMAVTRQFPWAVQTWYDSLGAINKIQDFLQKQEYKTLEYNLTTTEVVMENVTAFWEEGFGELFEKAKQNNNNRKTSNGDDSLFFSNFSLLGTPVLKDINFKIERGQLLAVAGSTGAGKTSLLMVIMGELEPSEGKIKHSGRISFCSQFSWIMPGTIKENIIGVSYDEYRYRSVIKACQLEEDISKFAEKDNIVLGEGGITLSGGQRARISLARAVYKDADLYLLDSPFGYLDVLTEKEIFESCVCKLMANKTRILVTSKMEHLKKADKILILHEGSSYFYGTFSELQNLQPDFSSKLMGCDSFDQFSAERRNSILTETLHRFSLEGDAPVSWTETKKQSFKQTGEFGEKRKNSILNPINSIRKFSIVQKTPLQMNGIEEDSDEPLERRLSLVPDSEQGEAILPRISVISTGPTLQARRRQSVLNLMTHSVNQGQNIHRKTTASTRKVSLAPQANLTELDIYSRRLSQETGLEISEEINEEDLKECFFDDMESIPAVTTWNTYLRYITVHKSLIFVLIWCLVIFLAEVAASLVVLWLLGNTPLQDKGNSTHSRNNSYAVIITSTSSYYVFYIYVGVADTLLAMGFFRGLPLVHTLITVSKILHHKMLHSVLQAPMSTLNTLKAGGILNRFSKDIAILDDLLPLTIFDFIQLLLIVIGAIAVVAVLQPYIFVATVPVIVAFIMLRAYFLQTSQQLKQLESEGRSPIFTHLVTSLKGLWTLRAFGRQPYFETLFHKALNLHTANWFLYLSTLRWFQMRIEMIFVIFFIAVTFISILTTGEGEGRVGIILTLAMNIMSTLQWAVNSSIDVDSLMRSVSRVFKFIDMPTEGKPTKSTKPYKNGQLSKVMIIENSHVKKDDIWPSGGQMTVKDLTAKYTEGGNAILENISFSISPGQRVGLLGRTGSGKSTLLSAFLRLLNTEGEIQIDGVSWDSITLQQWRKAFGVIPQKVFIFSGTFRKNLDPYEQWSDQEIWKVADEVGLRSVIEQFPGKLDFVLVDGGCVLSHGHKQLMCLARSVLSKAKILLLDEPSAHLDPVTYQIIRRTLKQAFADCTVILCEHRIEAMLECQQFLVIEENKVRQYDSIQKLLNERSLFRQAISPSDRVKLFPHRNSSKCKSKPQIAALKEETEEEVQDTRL

| compound | Emax |
| --- | --- |
| Cc1cccc(C)c1-c1cc2nc(n1)NS(=O)(=O)c1cccc(c1)C(=O)N(Cc1cnc3oc(C(C)C)cc3n1)[C@H](CCC1(C)CCC1)CO2 [Compound I-13] | > 60% |
| Cc1cccc(C)c1-c1cc2nc(n1)NS(=O)(=O)c1cccc(c1)CN(C(=O)c1cncc(N(C)C3CCC3)n1)[C@H](CC(C)(C)C)CO2 [II-36] | 30 to 60% |
| Cc1cccc(C)c1-c1cc2nc(n1)NS(=O)(=O)c1cccc(c1)C(=O)N(Cc1cn3cccc(C#N)c3n1)[C@H](CC(C)(C)C)CO2 [III-10] | > 60% |
| Cc1cccc(C)c1-c1cc2nc(n1)NS(=O)(=O)c1cccc(c1)C(=O)N(Cc1cnc3oc(C(C)C)cc3n1)[C@H](CC1(C(F)(F)F)CC1)CO2 [Compound I-54] | > 60% |
| Cc1cccc(C)c1-c1cc2nc(n1)NS(=O)(=O)c1cccc(c1)C(=O)N(Cc1cnc3oc(C(C)C)c(C)c3n1)[C@H](CCC1(C)CCC1)CO2 [Compound I-34] | > 60% |
| Cc1cccc(C)c1-c1cc2nc(n1)NS(=O)(=O)c1cccc(c1)C(=O)N(Cc1cnc3oc(C(C)C)cc3n1)[C@H](CC1CC1)CO2 [Compound I-57] | > 60% |
| Cc1cccc(C)c1-c1cc2nc(n1)NS(=O)(=O)c1cccc(c1)C(=O)N(Cc1nc3c(cc1F)cc(C(C)C)n3C)[C@H](CC1(C)CC1)CO2 [Compound I-80] | > 60% |
| Cc1cccc(C)c1-c1cc2nc(n1)NS(=O)(=O)c1cccc(c1)C(=O)N(Cc1cnc3oc(C(C)C)cc3n1)[C@H](CC(C)(C)F)CO2 [Compound I-35] | > 60% |
| Cc1cccc(C)c1-c1cc2nc(n1)NS(=O)(=O)c1cccc(c1)C(=O)N(Cc1cnc3oc(C4CC4)cc3n1)[C@H](CCC(C)(C)C)CO2 [Compound I-24] | > 60% |
| Cc1cccc(C)c1-c1cc2nc(n1)NS(=O)(=O)c1cccc(c1)C(=O)N(Cc1nc3cc(C(C)C)oc3cc1F)[C@H](CC13CC(C1)C3)CO2 [Compound I-89] | > 60% |
| Cc1cccc(C)c1-c1cc2nc(n1)NS(=O)(=O)c1cccc(c1)C(=O)N(Cc1cnc3oc(C4CC4)cc3n1)[C@H](CC(C)(C)C)CO2 [Compound I-20] | > 60% |
| Cc1cccc(C)c1-c1cc2nc(n1)NS(=O)(=O)c1cccc(c1)C(=O)N(Cc1cnc3oc(C(C)C)c(C)c3n1)[C@H](CC(C)(C)C)CO2 [Compound I-4] | > 60% |

Data provenance is patent US20250340574A1.
